Target: T1, recombinant human CEACAM5 (human, UniProt P06731 35-685, limits assumed)
T1 construct: Immobilised by amine coupling on a CM5 chip
T1 sequence (looked up): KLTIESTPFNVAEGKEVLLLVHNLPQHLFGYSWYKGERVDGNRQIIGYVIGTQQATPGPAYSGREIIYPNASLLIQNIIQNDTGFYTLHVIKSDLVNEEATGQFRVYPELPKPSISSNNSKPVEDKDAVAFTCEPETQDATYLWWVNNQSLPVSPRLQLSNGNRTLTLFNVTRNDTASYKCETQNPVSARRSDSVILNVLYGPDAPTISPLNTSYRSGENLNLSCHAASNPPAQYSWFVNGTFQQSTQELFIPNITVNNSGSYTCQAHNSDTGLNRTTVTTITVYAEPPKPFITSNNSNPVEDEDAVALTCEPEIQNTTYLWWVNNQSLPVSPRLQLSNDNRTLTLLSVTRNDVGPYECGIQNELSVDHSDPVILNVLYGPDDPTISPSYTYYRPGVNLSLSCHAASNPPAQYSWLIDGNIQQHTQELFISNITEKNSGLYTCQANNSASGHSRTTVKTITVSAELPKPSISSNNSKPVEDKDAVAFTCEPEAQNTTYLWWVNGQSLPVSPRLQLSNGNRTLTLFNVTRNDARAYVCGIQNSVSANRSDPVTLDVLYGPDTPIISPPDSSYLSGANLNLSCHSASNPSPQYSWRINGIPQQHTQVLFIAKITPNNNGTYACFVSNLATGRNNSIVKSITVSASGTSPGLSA
Assay: SPR Biacore 8K+, CEACAM5 amine-coupled on CM5, ISVD analyte, 1:1 fit
metric: kon
In your response, put the unit directly after the numeric value.

Given the binder T028501803 (VHH, K75H vs precursor T028501789; also called A0315007E07(K75H)) VHH: EVQLVESGGGVVQPGGSLRLSCAASGLTFSTYTMGWFRQAPGKEREFVAAIIWSGSNTYYADSVKGRFTISRDNAHNTVYLQMNSLRPEDTALYYCAAQHFGPIGLTTRGYHYWGQGTLVTVSS , what is its reported kon?
574000 M⁻¹ s⁻¹

Using the record for T028501824 (VHH, also called A0315024B02(M43K, (K64K83R))) VHH: EVQLVESGGGVVQPGGSLRLSCAASGHTFSEYALGWFRQAPGKEREFVAAINWGGGWTYYADSVQGRFTISRDNAKNTLYLQMNSLRPEDTALYYCAASSDYAGGNPTGYPYWGQGTLVTVSS , report its kon.
205000 M⁻¹ s⁻¹

Look up kon: T028501829 (VHH, K75Q vs precursor T028501817; also called A0315024B02(M43K, Q64K, K75Q, K83R)) VHH: EVQLVESGGGVVQPGGSLRLSCAASGHTFSEYALGWFRQAPGKEREFVAAINWGGGWTYYADSVKGRFTISRDNAQNTLYLQMNSLRPEDTALYYCAASSDYAGGNPTGYPYWGQGTLVTVSS
291000 M⁻¹ s⁻¹

I would be grateful if you could share the reported kon for T028501825 (VHH, K64R vs precursor T028501817; also called A0315024B02(M43K, Q64R, K83R)) VHH: EVQLVESGGGVVQPGGSLRLSCAASGHTFSEYALGWFRQAPGKEREFVAAINWGGGWTYYADSVRGRFTISRDNAKNTLYLQMNSLRPEDTALYYCAASSDYAGGNPTGYPYWGQGTLVTVSS .
331000 M⁻¹ s⁻¹
